# EXPERIMENTAL SYSTEM: human vasopressin V1b receptor (Homo sapiens, UniProt P47901)
# Construct: expressed in transfected cells; host or cells: CHO-K1 (cell line hV1b_3H2_CHO), membrane preparation
# Sequence (P47901 whole entry): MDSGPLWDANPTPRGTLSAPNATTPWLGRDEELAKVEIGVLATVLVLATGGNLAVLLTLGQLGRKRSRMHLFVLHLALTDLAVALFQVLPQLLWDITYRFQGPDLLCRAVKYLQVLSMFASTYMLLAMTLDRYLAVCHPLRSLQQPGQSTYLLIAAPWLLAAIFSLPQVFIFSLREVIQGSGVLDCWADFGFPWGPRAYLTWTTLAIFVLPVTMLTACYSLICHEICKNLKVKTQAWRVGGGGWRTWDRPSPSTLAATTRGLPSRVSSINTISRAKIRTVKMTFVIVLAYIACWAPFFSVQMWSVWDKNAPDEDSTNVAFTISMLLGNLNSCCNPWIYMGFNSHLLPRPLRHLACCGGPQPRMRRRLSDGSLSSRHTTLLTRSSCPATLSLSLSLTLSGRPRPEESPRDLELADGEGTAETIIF
# MEASUREMENT NOTES: Vasopressin V1b receptor binding assay
# PARTICULARS: CHO-K1 membranes, 3H-AVP displacement
pKi: −log10 of the molar value.
RECORDED METRIC: pKi

The following molecules have reported results that may help.
CCOc1ccccc1C1(NC(=O)N2CCC(N3CCN(CC)CC3)CC2)C(=O)N(S(=O)(=O)c2ccc(OC)cc2)c2cc(F)c(C#N)cc21 (centres unmarked)
8.00 to 9.00
CCOc1ncccc1C1(OC(=O)N2CCN(C3CCN(C)CC3)CC2)C(=O)N(S(=O)(=O)c2ccccc2)c2cc(F)c(C#N)cc21 (centres unmarked)
8.00 to 9.00
CCOc1ncccc1C1(NC(=O)N2CCN(C3CCN(CC)CC3)CC2)C(=O)N(S(=O)(=O)c2ccc(OC)cc2OC)c2cc(F)c(C#N)cc21 (centres unmarked)
> 9.00
CCOc1ccccc1C1(NC(=O)N2CCC(N3CCN(CC)CC3)CC2)C(=O)N(S(=O)(=O)c2ccccc2)c2cc(F)c(C#N)cc21 (centres unmarked)
8.00 to 9.00
CCOc1ncccc1C1(NC(=O)N2CCN(C3CCN(C)CC3)CC2)C(=O)N(S(=O)(=O)c2ccccc2)c2cc(F)c(Cl)cc21 (centres unmarked)
8.00 to 9.00
CCOc1ccccc1C1(NC(=O)N2CCC(N3CCN(CC)CC3)CC2)C(=O)N(S(=O)(=O)c2ccc(OC)cc2OC)c2cc(F)c(C#N)cc21 (centres unmarked)
> 9.00
CCOc1ncccc1C1(NC(=O)N2CCC(C3CCN(C)CC3)CC2)C(=O)N(S(=O)(=O)c2ccc(OC)cc2OC)c2cc(F)c(Cl)cc21 (centres unmarked)
> 9.00
CCOc1ncccc1C1(NC(=O)N2CCN(C3CCN(C)CC3)CC2)C(=O)N(S(=O)(=O)c2ccc(OC)cc2OC)c2cc(F)c(C#N)cc21 (centres unmarked)
> 9.00

Identify the measured pKi of CCOc1ncccc1C1(OC(=O)N2CCN(C3CCN(C)CC3)CC2)C(=O)N(S(=O)(=O)c2ccc(OC)cc2OC)c2cc(Cl)c(F)cc21 (centres unmarked) for human vasopressin V1b receptor (Homo sapiens, UniProt P47901). 8.00 to 9.00

Identify the measured pKi of CCOc1ncccc1C1(NC(=O)N2CCC(N3CCN(CC)CC3)CC2)C(=O)N(S(=O)(=O)c2ccc(OC)cc2)c2cc(F)c(C#N)cc21 (centres unmarked) for human vasopressin V1b receptor (Homo sapiens, UniProt P47901). 8.00 to 9.00

Identify the measured pKi of CCOc1ncccc1C1(OC(=O)N2CCN(C3CCN(C)CC3)CC2)C(=O)N(S(=O)(=O)c2ccc(OC)cc2)c2cc(F)c(C#N)cc21 (centres unmarked) for human vasopressin V1b receptor (Homo sapiens, UniProt P47901). > 9.00

====

# EXPERIMENTAL SYSTEM: human vasopressin V1a receptor (Homo sapiens)
# Construct: expressed in transfected cells; host or cells: CHO-K1 (cell line hV1a_5_CHO), membrane preparation
# Sequence (P37288 whole entry): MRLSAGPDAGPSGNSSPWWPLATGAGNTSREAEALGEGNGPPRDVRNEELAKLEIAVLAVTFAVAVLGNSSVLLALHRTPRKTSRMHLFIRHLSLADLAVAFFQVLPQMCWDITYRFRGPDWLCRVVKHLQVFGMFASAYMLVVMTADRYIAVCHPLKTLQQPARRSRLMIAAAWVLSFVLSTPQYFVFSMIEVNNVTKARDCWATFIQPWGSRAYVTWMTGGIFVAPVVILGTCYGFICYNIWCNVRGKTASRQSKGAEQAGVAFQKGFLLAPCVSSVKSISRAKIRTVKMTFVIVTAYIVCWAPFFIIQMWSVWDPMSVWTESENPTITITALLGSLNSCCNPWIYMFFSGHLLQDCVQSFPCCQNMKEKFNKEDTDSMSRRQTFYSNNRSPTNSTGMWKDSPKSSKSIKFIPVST
# MEASUREMENT NOTES: Vasopressin V1a receptor binding assay
# PARTICULARS: selectivity quotient, human receptors
RECORDED METRIC: Ki(h − V1a)/Ki(h − V1b)*

CCOc1ncccc1C1(OC(=O)N2CCN(C3CCN(C)CC3)CC2)C(=O)N(S(=O)(=O)c2ccc(OC)cc2)c2cc(F)c(C#N)cc21 (centres unmarked) [Example 39]
++ (25-75)
CCOc1ncccc1C1(OC(=O)N2CCN(C3CCN(C)CC3)CC2)C(=O)N(S(=O)(=O)c2ccc(OC)cc2OC)c2cc(Cl)c(F)cc21 (centres unmarked) [Example 46]
++ (25-75)
CCOc1ncccc1C1(NC(=O)N2CCC(N3CCN(CC)CC3)CC2)C(=O)N(S(=O)(=O)c2ccc(OC)cc2OC)c2cc(F)c(C#N)cc21 (centres unmarked) [Example 4]
++ (25-75)
